target: human 5-HT6 (h5-HT6) receptors (Homo sapiens)
Construct: purchased Receptor Biology, Inc. (Beltsville, Md.); host or cells: HEK-293 cells
Sequence (P50406 whole entry): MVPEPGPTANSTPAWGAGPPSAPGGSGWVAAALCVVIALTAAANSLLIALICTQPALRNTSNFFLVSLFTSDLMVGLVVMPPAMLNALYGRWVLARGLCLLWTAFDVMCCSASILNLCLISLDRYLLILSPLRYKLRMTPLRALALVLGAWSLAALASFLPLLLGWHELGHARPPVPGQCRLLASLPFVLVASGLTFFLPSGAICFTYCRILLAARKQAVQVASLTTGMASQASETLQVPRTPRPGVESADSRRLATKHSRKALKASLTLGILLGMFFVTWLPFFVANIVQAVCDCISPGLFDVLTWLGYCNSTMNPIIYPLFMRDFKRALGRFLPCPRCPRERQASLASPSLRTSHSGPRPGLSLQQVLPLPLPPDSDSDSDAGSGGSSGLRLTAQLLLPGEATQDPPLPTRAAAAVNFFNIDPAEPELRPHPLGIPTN
procedure_details: Competition radioligand binding, h5-HT6
value_kind: pKi
One number for each entry, as −log10 of the molar value.

## Input What value of measured pKi is listed for COc1cccc(OC)c1CNC(=N)NC(=O)N1CCC(Nc2ccccc2)CC1 ?
## Output 5.33

## Input Returns the measured pKi for the input molecule. Input: N=C(NCc1ccccc1-c1ccccc1)NC(=O)N1CCC(Nc2ccccc2)CC1
## Output 5.62

## Input Recorded pKi of N=C(NCc1c(Cl)cccc1Oc1ccccc1)NC(=O)N1CCC(Nc2ccccc2)CC1 , please.
## Output 5.64

# evaluate next
## Input Look up pKi: CCOc1ccccc1CNC(=N)NC(=O)N1CCC(Nc2ccccc2)CC1
## Output 5.16
